Tested on: ASAU001 (laboratory strain of S. aureus, ATCC29213)
Assay: MIC broth microdilution, ASAU001
Assay type: cell-based
Details: Staphylococcus aureus, ATCC29213, read-out: MIC ASAU001
Kindly supply the reported MIC values for the records listed here.

The measured MIC associated with "CC(C)(N)[C@H](NC(=O)c1ccc(C#CC#CCC2CCCC2)cc1)C(=O)NO" reads 2 to 16 µg/mL

The measured MIC associated with "O=C(N[C@H](C(=O)NO)c1ccccc1)c1ccc(/C=C/C#Cc2ccc(CN3CCOCC3)cc2)cc1" reads 16 to 64 µg/mL

The measured MIC associated with "O=C(NO)[C@@H]1CCCN1S(=O)(=O)c1ccc(C#Cc2ccc(CN3CCOCC3)cc2)cc1" reads > 64 µg/mL

The measured MIC associated with "O=C(N[C@H](C(=O)NO)c1ccsc1)c1ccc(C#Cc2ccc(CN3CCOCC3)cc2)cc1" reads > 64 µg/mL

The measured MIC associated with "Cn1cc(C#CC#Cc2ccc(C(=O)N[C@H](C(=O)NO)C(C)(C)O)cc2)cn1" reads 16 to 64 µg/mL

The measured MIC associated with "C[C@@H](N)[C@H](NC(=O)c1ccc(C#CC#Cc2cncnc2)cc1)C(=O)NO" reads 16 to 64 µg/mL

---

System: AECO001 (ATCC25922)
Assay: MIC broth microdilution, AECO001
Assay type: cell-based, E. coli
Conditions: Escherichia coli, ATCC25922, read-out: MIC AECO001
Kindly supply the reported MIC values for the records listed here.

The measured MIC associated with CC(C)(O)[C@H](NC(=O)c1ccc(C#Cc2ccc(CNCC(F)F)cc2)cc1)C(=O)NO [Example 119-5] reads < 2 µg/mL

The measured MIC associated with C[C@@H](N)[C@H](NC(=O)c1ccc(C#Cc2ccc(CNCCC#N)cc2)cc1)C(=O)NO [Example 118-8] reads < 2 µg/mL

The measured MIC associated with C[C@H](O)[C@H](NC(=O)c1ccc(/C=C/C#Cc2ccc(CNC3CC3)cc2)cc1)C(=O)NO [Example 113-4] reads < 2 µg/mL

The measured MIC associated with CC(C)(N)C(NC(=O)c1ccc(C#Cc2ccc(CNCC(F)F)cc2)cc1)C(=O)NO (centres unmarked) [Example 137-7] reads < 2 µg/mL

The measured MIC associated with C[C@H](N)[C@H](NC(=O)c1ccc(C#Cc2ccc(CNC3CC3)cc2)cc1)C(=O)NO [Example 133-3] reads < 2 µg/mL

The measured MIC associated with CC(C)(O)[C@H](NC(=O)c1ccc(C#C/C=C/c2ccc(CN3CCOCC3)cc2)cc1)C(=O)NO [Compound 97-2] reads < 2 µg/mL

The measured MIC associated with C[C@@H](O)[C@H](NC(=O)c1ccc(C#Cc2ccc(CNCC(F)F)cc2)cc1)C(=O)NO [Example 119-4] reads < 2 µg/mL

The measured MIC associated with C[C@@H](O)[C@H](NC(=O)c1ccc(/C=C/C#Cc2ccc(CNC3CC3)cc2)cc1)C(=O)NO [Example 113-3] reads < 2 µg/mL

The measured MIC associated with C[C@@H](N)[C@H](NC(=O)c1ccc(/C=C/C#Cc2ccc(CO)cc2)cc1)C(=O)NO [Example 112-1] reads < 2 µg/mL

The measured MIC associated with C[C@@H](N)[C@H](NC(=O)c1ccc(C#Cc2ccc(CN3CCC(F)(F)C3)cc2)cc1)C(=O)NO [Example 118-3] reads < 2 µg/mL

The measured MIC associated with CC(C)(N)C(NC(=O)c1ccc(C#CC#Cc2ccc(CNC3CC3)cc2)cc1)C(=O)NO (centres unmarked) [Example 87-1] reads < 2 µg/mL

The measured MIC associated with CC(C)/C=C/C#Cc1ccc(C(=O)N[C@H](C(=O)NO)C(C)(C)N)cc1 [Example 107-6] reads < 2 µg/mL

The measured MIC associated with C[C@@H](N)[C@H](NC(=O)c1ccc(C#CC#CC2CC2)cc1)C(=O)NO [Example 91-2] reads < 2 µg/mL

The measured MIC associated with C[C@@H](N)[C@H](NC(=O)c1ccc(C#Cc2ccc(CN)cc2)cc1)C(=O)NO [Example 131-1] reads 16 to 64 µg/mL

The measured MIC associated with CC(C)(N)C(NC(=O)c1ccc(C#CC#CC2CC2)cc1)C(=O)NO (centres unmarked) [Example 91-10] reads < 2 µg/mL

The measured MIC associated with C[C@@H](N)[C@H](NC(=O)c1ccc(C#CC#CCCCO)cc1)C(=O)NO [Example 137-25] reads 16 to 64 µg/mL

The measured MIC associated with C[C@@H](N)[C@H](NC(=O)c1ccc(C#Cc2ccc(COCC(F)(F)F)cc2)cc1)C(=O)NO [Example 124-1] reads < 2 µg/mL

The measured MIC associated with O=C(NO)[C@@H]1CCN1S(=O)(=O)c1ccc(C#Cc2ccc(CN3CCOCC3)cc2)cc1 [Example 62-11] reads 2 to 16 µg/mL

The measured MIC associated with CC(C)(O)[C@H](NC(=O)c1ccc(C#C/C=C/c2ccc(CO)cc2)cc1)C(=O)NO [Example 101-5] reads < 2 µg/mL

The measured MIC associated with C[C@@H](N)[C@H](NC(=O)c1ccc(/C=C/C#Cc2ccc(CNC3CC3)cc2)cc1)C(=O)NO [Example 113-2] reads < 2 µg/mL

The measured MIC associated with O=C(N[C@H](C(=O)NO)C1CCOCC1)c1ccc(/C=C/C#Cc2ccc(CN3CCOCC3)cc2)cc1 [Example 110-4] reads < 2 µg/mL

The measured MIC associated with NC[C@H](NC(=O)c1ccc(/C=C/C#Cc2ccc(CO)cc2)cc1)C(=O)NO [Example 112-2] reads 2 to 16 µg/mL

The measured MIC associated with CC(C)(O)[C@H](NC(=O)c1ccc(C#C/C=C/c2ccccc2)cc1)C(=O)NO [Example 104-3] reads < 2 µg/mL

---

System: ASAU001 (laboratory strain of S. aureus, ATCC29213)
Assay: MIC broth microdilution, ASAU001
Assay type: cell-based
Conditions: Staphylococcus aureus, ATCC29213, read-out: MIC ASAU001
Kindly supply the reported MIC values for the records listed here.

Record for CO[C@H](C)[C@H](NC(=O)c1ccc(/C=C/C#Cc2ccc(CNC3CC3)cc2)cc1)C(=O)NO [Example 113-7] under target or system ASAU001 (laboratory strain of S. aureus, ATCC29213): MIC reported as > 64 µg/mL

Record for C[C@@H](N)[C@H](NC(=O)c1ccc(C#CC#CC2CCNCC2)cc1)C(=O)NO [Example 137-22] under target or system ASAU001 (laboratory strain of S. aureus, ATCC29213): MIC reported as 16 to 64 µg/mL

Record for C[C@@H](N)[C@H](NC(=O)c1ccc(C#CC#CC2CCCC2)cc1)C(=O)NO [Example 91-3] under target or system ASAU001 (laboratory strain of S. aureus, ATCC29213): MIC reported as 2 to 16 µg/mL

Record for O=C(NO)C1(NS(=O)(=O)c2ccc(C#Cc3ccc(CN4CCOCC4)cc3)cc2)CCCC1 [Example 62-8] under target or system ASAU001 (laboratory strain of S. aureus, ATCC29213): MIC reported as > 64 µg/mL

Record for C[C@@H](N)[C@H](NC(=O)c1ccc(C#CC#Cc2cccc(F)c2)cc1)C(=O)NO [Example 82-5] under target or system ASAU001 (laboratory strain of S. aureus, ATCC29213): MIC reported as 2 to 16 µg/mL

Record for CC(C)(N)[C@H](NC(=O)c1ccc(C#CC#Cc2cncnc2)cc1)C(=O)NO [Example 89-6] under target or system ASAU001 (laboratory strain of S. aureus, ATCC29213): MIC reported as 16 to 64 µg/mL

Record for C[C@H](C#CC#Cc1ccc(C(=O)N[C@H](C(=O)NO)[C@@H](C)N)cc1)N1CCOCC1 [Example 92-1] under target or system ASAU001 (laboratory strain of S. aureus, ATCC29213): MIC reported as 16 to 64 µg/mL

Record for C[C@@H](N)[C@H](NC(=O)c1ccc(C#CC2CC2c2ccccc2)cc1)C(=O)NO (stereo partly shown) [Example 134-2] under target or system ASAU001 (laboratory strain of S. aureus, ATCC29213): MIC reported as 16 to 64 µg/mL

Record for CC(C)CCC#CC#Cc1ccc(C(=O)N[C@H](C(=O)NO)[C@@H](C)N)cc1 [Example 91-28] under target or system ASAU001 (laboratory strain of S. aureus, ATCC29213): MIC reported as 2 to 16 µg/mL

Record for C[C@@H](O)[C@H](NC(=O)c1ccc(C#CC#Cc2ccc(F)cc2)cc1)C(=O)NO [Example 82-23] under target or system ASAU001 (laboratory strain of S. aureus, ATCC29213): MIC reported as 16 to 64 µg/mL

Record for COC(=O)[C@@H](NC(=O)c1ccc(C#C/C(F)=C/c2ccc(CN3CCOCC3)cc2)cc1)[C@@H](C)O [Example 109-2] under target or system ASAU001 (laboratory strain of S. aureus, ATCC29213): MIC reported as 16 to 64 µg/mL

Record for CC(C)(O)[C@H](NC(=O)c1ccc(C#CC#Cc2ccccc2)cc1)C(=O)NO [Example 82-13] under target or system ASAU001 (laboratory strain of S. aureus, ATCC29213): MIC reported as 16 to 64 µg/mL

Record for CC(C)(N)[C@H](NC(=O)c1ccc(C#C/C=C/c2ccc(CNC3CC3)cc2)cc1)C(=O)NO [Example 102-6] under target or system ASAU001 (laboratory strain of S. aureus, ATCC29213): MIC reported as 16 to 64 µg/mL

Record for CC(C)(O)[C@H](NC(=O)c1ccc(C#CC#Cc2ccc(F)cc2)cc1)C(=O)NO [Example 82-19] under target or system ASAU001 (laboratory strain of S. aureus, ATCC29213): MIC reported as 16 to 64 µg/mL

Record for CC(C)(O)[C@H](NC(=O)c1ccc(C#Cc2ccc(CNCC(F)F)cc2)cc1)C(=O)NO [Example 119-5] under target or system ASAU001 (laboratory strain of S. aureus, ATCC29213): MIC reported as 16 to 64 µg/mL

Record for C[C@@H](N)[C@H](NC(=O)c1ccc(C#Cc2ccc(CNCC(F)F)cc2)cc1)C(=O)NO [Example 119-1] under target or system ASAU001 (laboratory strain of S. aureus, ATCC29213): MIC reported as 16 to 64 µg/mL

Record for C[C@@H](N)[C@H](NC(=O)c1ccc(C#CC#Cc2ccccc2Cl)cc1)C(=O)NO [Example 82-10] under target or system ASAU001 (laboratory strain of S. aureus, ATCC29213): MIC reported as 2 to 16 µg/mL

Record for CC(C)(O)[C@H](NC(=O)c1ccc(C#CC#Cc2ccccn2)cc1)C(=O)NO [Example 88-7] under target or system ASAU001 (laboratory strain of S. aureus, ATCC29213): MIC reported as 16 to 64 µg/mL

Record for CC(C)(C)CNCc1ccc(C#Cc2ccc(C(=O)N[C@H](C(=O)NO)C(C)(C)N)cc2)cc1 [Example 122-2] under target or system ASAU001 (laboratory strain of S. aureus, ATCC29213): MIC reported as 16 to 64 µg/mL

Record for O=C(N[C@H](C(=O)NO)C1CCCC1)c1ccc(C#Cc2ccc(CN3CCOCC3)cc2)cc1 [Example 66-6] under target or system ASAU001 (laboratory strain of S. aureus, ATCC29213): MIC reported as > 64 µg/mL

Record for C[C@H](NCC(=O)NC[C@H](NC(=O)c1ccc(C#Cc2ccccc2)cc1)C(=O)NO)c1ccccc1 [Example 132-4] under target or system ASAU001 (laboratory strain of S. aureus, ATCC29213): MIC reported as 16 to 64 µg/mL

Record for COc1ccc(C#CC#Cc2ccc(C(=O)N[C@H](C(=O)NO)[C@@H](C)N)cc2)cc1 [Example 82-1] under target or system ASAU001 (laboratory strain of S. aureus, ATCC29213): MIC reported as 16 to 64 µg/mL
